Please go through the items and note down their EC50.
assay: Antimicrobial activity against Lactobacillus jensenii
I only need the number, in µg/mL, no unit after it.

Reported EC50 of C=C[C@H]1CN(CCCC)CC[C@H]1CC(=C)C(=O)c1ccnc2ccccc12.O=C(O)C(O)C(O)C(=O)O : 321

# EC50 (molecule: C=C[C@H]1CN(CCCCC)CC[C@H]1CCC(=O)c1ccnc2ccccc12.O=C(O)C(O)C(O)C(=O)O ) is 76.3

Lab note: C=C[C@H]1CN(CCCCC)CC[C@H]1CC(=C)C(=O)c1ccnc2ccccc12.O=C(O)C(O)C(O)C(=O)O gave EC50 of 130

Query C=C[C@H]1CN(CCC)CC[C@H]1CCC(=O)c1ccnc2ccccc12.O=C(O)C(O)C(O)C(=O)O yields EC50 of 526

Recorded EC50 (molecule CCCCCCCCCc1ccc(OCCOCCOCCOCCOCCOCCOCCOCCOCCO)cc1 ): 32.5

Item: C=C[C@H]1CN2CC[C@H]1C[C@@H]2[C@@H](O)c1ccnc2ccccc12 | EC50: 428

For C=C[C@H]1CN(CC)CC[C@H]1CC(=C)C(=O)c1ccnc2ccccc12.O=C(O)C(O)C(O)C(=O)O the molecule record lists EC50 as 685

The molecule C=C[C@H]1CNCC[C@H]1CCC(=O)c1ccnc2ccccc12 showed EC50 equal to 449
